TARGET SYSTEM: UniProt:Q99808
Sequence (Q99808 2-456): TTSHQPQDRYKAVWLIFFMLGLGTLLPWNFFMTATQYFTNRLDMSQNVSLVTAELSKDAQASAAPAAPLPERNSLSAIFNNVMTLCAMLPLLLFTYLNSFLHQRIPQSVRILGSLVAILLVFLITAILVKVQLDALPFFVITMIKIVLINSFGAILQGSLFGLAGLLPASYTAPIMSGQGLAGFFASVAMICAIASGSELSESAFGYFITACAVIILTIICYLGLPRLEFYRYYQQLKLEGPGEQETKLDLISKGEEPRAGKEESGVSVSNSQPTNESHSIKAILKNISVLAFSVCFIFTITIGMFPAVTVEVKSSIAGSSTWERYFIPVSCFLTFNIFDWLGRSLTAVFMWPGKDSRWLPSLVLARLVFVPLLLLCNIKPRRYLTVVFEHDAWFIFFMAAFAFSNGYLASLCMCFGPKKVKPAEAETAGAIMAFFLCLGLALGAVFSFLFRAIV
ASSAY REMARKS: inhibition of initial rate of 3H-uridine
Format: cell-based
QUANTITY MEASURED: IC50 (µM)
Express the result in µM but write the number alone.

Exam item: Give the observed IC50 of `NC(=O)c1cn([C@@H]2O[C@H](CO)[C@@H](O)[C@H]2O)c2ncnc(NCc3ccc([N+](=O)[O-])cc3)c12` for UniProt:Q99808.
Marked response: 0.123

====

TARGET SYSTEM: human equilibrative nucleoside transporter 1 (hENT1) (Homo sapiens, UniProt Q99808)
ASSAY REMARKS: inhibition of initial rate of 3H-uridine
Assay type: cell-based
pIC50: −log10 of the molar value.
QUANTITY MEASURED: pIC50

Exam item: Determine its reported pIC50: O=[N+]([O-])c1ccc(CNc2ncnc3c2ccn3[C@@H]2O[C@H](CO)[C@@H](O)[C@H]2O)cc1 [2b]
Marked response: < 6.00

Values were extracted from paper PMC4149842.
